Tested on: Tov112D
Assay: Primary qHTS to identify gynecologic anti-cancer compounds using libraries of approved drugs and bioactive compounds (AID 1345084); note: nearly all actives have a fitted effect of over 55% in size
Conditions: Gynecologic cancer cell panel viability, ATPlite luminescence, 48 h; series mostly up to 57.5 µM
Records with an inconclusive call do not appear. The source made the active and inactive calls. Calls come from the whole dose curve; as a rule, active = well fitted cell-killing curve with a large enough effect; inconclusive = small, poorly fitted or top-dose-only effect, or effect the other way; inactive = flat fitted curve, though single readings scatter.
Hello, when you answer, please use one of the following outcomes: active, inactive

compound	studySystem	qualitativeLabel
CN(C)N(C)C(=O)[C@@]1(Cc2ccccc2)CCCN(C(=O)[C@@H](Cc2c[nH]c3ccccc23)NC(=O)C(C)(C)N)C1	Tov112D	inactive
CN(C)CCn1cc(-c2ccc(F)cc2)c(-n2cccc2)n1	Tov112D	inactive
COCCCNC(=O)c1ccc(Cn2c(=O)c3ccccc3n(Cc3ccc(C(C)C)cc3)c2=O)cc1	Tov112D	inactive
COc1cc(CCc2cc(NC(=O)c3ccc(N4CC(C)NC(C)C4)cc3)n[nH]2)cc(OC)c1 (stereo unspecified)	Tov112D	inactive
O=c1[nH]cnc2c([C@@H]3N[C@H](CO)[C@@H](O)[C@H]3O)c[nH]c12	Tov112D	inactive

Answer briefly: the call reported for "COc1ccc(N2CCN(C(=O)c3cc4c(s3)-c3ccccc3S(=O)(=O)C4)CC2)cc1" in this assay.
inactive

Same question for "CCC(CC)Nc1nc(C)c(-c2ccc(OC(F)(F)F)cc2OC)nc1OC" please.
inactive

----------
Molecular target: Luciferin 4-monooxygenase (Photinus pyralis) (UniProt P08659)
Assay: Primary firefly luciferase (FLuc) qHTS assay for identification of artifact compounds. (AID 1845220); note: nearly all actives have a fitted effect of over 60% in size;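 for activity change, negative = inhibition: plate controls were DMSO vehicle for no effect and no enzyme for full effect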
Conditions: purified firefly luciferase, luminescence, 5 min; series mostly up to 54.1 µM
Activity calls are given as the source filed them. The call rests on the fitted dose curve; in most records, active means well fitted inhibition curve with a large enough effect; inconclusive means small, poorly fitted or top-dose-only effect; inactive means flat fitted curve, though single readings scatter.
measureName: activity change, negative = inhibition

Some compounds with known activity change, negative = inhibition results, for comparison:
compound	activity change, negative = inhibition
COC1CC(=O)C23C(=O)NC(CC(C)C)C2C(C)C(C)=CC3/C=C(\C)CCCC1O (centres undefined)	inactive
Cc1cc(C)nc(SCC(=O)Nc2ncc(Cc3cccc4ccccc34)s2)n1	inactive
COC(=O)C(Cc1ccc(OCCn2c(=O)sc3cc(C(=O)c4ccccc4)ccc32)cc1)C(=O)OC	inactive
CC(C)=CCC[C@](C)(O[C@@H]1O[C@H](CO[C@@H]2OC[C@@H](O)[C@H](O)[C@H]2O)[C@@H](O)[C@H](O)[C@H]1O)[C@H]1CC[C@]2(C)[C@@H]1[C@H](O)C[C@@H]1[C@@]3(C)CC[C@H](O[C@@H]4O[C@H](CO)[C@@H](O)[C@H](O)[C@H]4O)C(C)(C)[C@@H]3CC[C@]12C	inactive
COC(CCc1ccc(O)cc1)CC(=O)CCc1ccc(O)cc1 (centres undefined)	inactive

Enter reported activity change, negative = inhibition observed with Luciferin 4-monooxygenase (Photinus pyralis) (UniProt P08659) for "COc1cc(C#N)ccc1S(=O)(=O)Nc1ccc2c(c1)cc(C)c(=O)n2C"
inactive

Then "Cc1ccc(CNc2ncnc3ccc(-c4ccc(CO)o4)cc23)o1" ?
inactive

Next compound: "Cc1c(C2=CCN(C(=O)N(C)C(C)C)CC2)nnn1-c1cccnc1F"
inactive

Now the same for "O=C(C1CCCCC1)N(CCN1CCN(c2ccccc2O)CC1)c1ccccn1"
inactive

----------
Tested on: C33A
Test: Primary qHTS to identify gynecologic anti-cancer compounds using libraries of approved drugs and bioactive compounds (AID 1345084); note: nearly all actives have a fitted effect of over 55% in size
Settings: Gynecologic cancer cell panel viability, ATPlite luminescence, 48 h; series mostly up to 57.5 µM
Results filed as inconclusive are left out. Activity calls are given as the source filed them. The call rests on the fitted dose curve; in most records, active means well fitted cell-killing curve with a large enough effect; inconclusive means small, poorly fitted or top-dose-only effect, or effect the other way; inactive means flat fitted curve, though single readings scatter.
Returns: one label drawn from 1 (yes) (active), 0 (no) (inactive)

How was "Cn1ncc(Cl)c1-c1cc(C(=O)N[C@H](CN)Cc2ccc(F)c(F)c2)oc1Cl" classified in this test?
1 (yes)

Next: "N#Cc1ccc(N2N=C3c4ccc(C(=O)O)cc4CC[C@@H]3[C@@H]2C2CCCC2)cc1Cl"
0 (no)

Another compound to check: CC1(CO)CC2C(O)C3=C(CC(C)(O)C2C1)C(=O)OC3 (centres undefined)
0 (no)

Further, for "Cc1cccc(C#Cc2cc(F)cc(C#N)c2)n1" ?
0 (no)

Again, but for C=CC(C)(C)C12CC3C(=O)N4C(CC5(C(C)(C)C=C)c6ccccc6NC45)C(=O)N3C1Nc1ccccc12 (centres undefined)
0 (no)

----------
System: CAOV3
Assay: Primary qHTS to identify gynecologic anti-cancer compounds using libraries of approved drugs and bioactive compounds (AID 1345084); note: nearly all actives have a fitted effect of over 55% in size
Details: Gynecologic cancer cell panel viability, ATPlite luminescence, 48 h; series mostly up to 57.5 µM
Records with an inconclusive call do not appear. Active and inactive are the calls of the source. Calls come from the whole dose curve; as a rule, active = well fitted cell-killing curve with a large enough effect; inconclusive = small, poorly fitted or top-dose-only effect, or effect the other way; inactive = flat fitted curve, though single readings scatter.
Would you mind answering with one of these outcomes? 1 (active), 0 (inactive)

compound	qualitativeLabel
COc1ccc(NC(=O)c2ccc(-c3ccc(C(=N)N)cc3C)cc2)cc1N1CCN(C)CC1	0
CC1(CO)CC(O)[C@]2(C(=O)O)CCC34CC3(C=CC3[C@]5(C)C(CC[C@]34C)C(C)(CO)[C@@H](O)[C@H](O)[C@@H]5O)C2C1 (some centres undefined)	0
Cc1cc(C(C)Nc2ccccc2C(=O)O)c2nc(N3CCOCC3)cc(=O)n2c1 (centres undefined)	0
N[C@@H]1c2cccnc2[C@H](OC(=O)N2CCC(n3c(=O)[nH]c4ncccc43)CC2)CC[C@H]1c1cccc(F)c1F	0
O=c1[nH]cnc2c([C@@H]3N[C@H](CO)[C@@H](O)[C@H]3O)c[nH]c12	0

What did this assay record as the result for "CC(C)=CCc1cc2c(cc1O)OC[C@H]1c3ccc(O)cc3O[C@@H]21" ?
0

Please do the same for "O=C(NCc1cccs1)c1cc2nc(-c3ccco3)cc(C(F)(F)Cl)n2n1" as well.
0

Ok, now "CC(C)NCCCn1c(Sc2cc3c(cc2I)OCO3)nc2c(N)ncnc21"
1

Same again, this time with "COc1ccccc1N1CCN(CC[C@@](C)(C(=O)C2CCCCC2)c2ccccc2)CC1"
0

Record: C=C1C(=O)O[C@@H]2[C@H]1CC[C@H](C)[C@]1(CCC(=O)O1)C2(C)O (some centres undefined)
0

Now the same for "O=C(Nc1ccc(N(Cc2ccsc2)C(=O)Cn2nnc3ccccc32)cc1)C1CC1"
0

Item: "Cc1ccc(S(=O)(=O)N2CCC[C@H]2c2ccc(F)cc2)cc1"
0

Entry "COc1cc2c(Nc3cc(F)c(Cl)c(Cl)c3)ncnc2cc1OCC1CCCN(C)CCC1" please
1

Query "N#Cc1cc(CN2CCC(Nc3ncnc4sc(Cl)cc34)CC2)ccc1F" next
0

Now give it for "CC(C)c1cc(-c2ccc(F)c3ccccc23)nc(N)n1" too.
0

Follow-up entry: "C1=Cc2ccccc2C(=C2CCN(CCCCc3nn[nH]n3)CC2)c2ccccc21"
0

For CC[C@@H](C)Nc1cc(C(=O)NC2CC3CC[C@@H](C2)N3c2ccc(C(=O)C3CC3)cn2)c(C)cc1C(N)=O (some centres undefined) then?
1

Lookup "COc1cc(/C=C/C(=O)NCCn2c(C(F)(F)F)cc3ccccc32)cc(OC)c1OC"
0

// repeat for "CNCCN1CCC(c2cc(CN(C)C(=O)c3cccc(Oc4ccccc4)c3)ccn2)CC1" and report
0

----------
Tested on: Es-2
Assay: Primary qHTS to identify gynecologic anti-cancer compounds using libraries of approved drugs and bioactive compounds (AID 1345084); note: nearly all actives have a fitted effect of over 55% in size
Conditions: Gynecologic cancer cell panel viability, ATPlite luminescence, 48 h; series mostly up to 57.5 µM
Records with an inconclusive call do not appear. Active and inactive are the calls of the source. The call rests on the fitted dose curve; in most records, active means well fitted cell-killing curve with a large enough effect; inconclusive means small, poorly fitted or top-dose-only effect, or effect the other way; inactive means flat fitted curve, though single readings scatter.
Give one outcome, nothing more. List: 1 (yes) for active, 0 (no) for inactive

The following compounds have reported results that may help.
compound	qualitativeLabel
CC12CCC3C1C(c1c(cc(O)c(C(=O)c4ccccc4)c1O)O2)C3(C)C (centres undefined)	0 (no)
C=CC(C)(C)c1[nH]c2ccccc2c1C[C@@H]1NC(=O)[C@H](C)NC1=O	0 (no)
C=C1C(=O)O[C@@H]2/C=C(\CO)CC/C=C(/C=O)C[C@@H](O)[C@@H]12	1 (yes)
NCC(CNc1nc(Nc2cccc(NC(=O)N3CCCC3)c2)ncc1I)C(=O)c1cccs1 (centres undefined)	0 (no)
Cc1noc(-c2ccc(-c3ccc(CC(=O)O)cc3)cc2)c1NC(=O)O[C@H](C)c1ccccc1Cl	0 (no)
COc1cc2nc(N3CCN(C(=O)COc4c(OC)cccc4C(C)C)CC3)nc(N)c2cc1OC	0 (no)
CCOc1ccc(-n2c(C(C)N(Cc3cccnc3)C(=O)Cc3ccc(F)c(C(F)(F)F)c3)nc3ncccc3c2=O)cc1 (centres undefined)	0 (no)
C=C1CC[C@H]2C(=C)CC[C@H]3C(=C)C(=O)O[C@@H]3[C@@H]12	0 (no)

// outcome(item) with item = COc1ccccc1-c1ccc(-c2cn(C(=O)N3CCCCC3Cc3ccccc3)nn2)cc1 (centres undefined)
0 (no)

Follow-up item: CCCn1ncc(CN2CCCC(C(=O)c3cccc(OC(C)C)c3)C2)c1C (centres undefined)
0 (no)

Can you handle "O=C(O)c1ccc(S(=O)(=O)N(Cc2ccc(OC(F)(F)F)cc2)c2ncc(C(F)(F)F)cc2Cl)cc1" next?
0 (no)

Moving on to "O=C1COc2nccc(-c3ccccc3F)c2CN1Cc1cc(C(F)(F)F)cc(C(F)(F)F)c1"
0 (no)

Can you check "CC(=O)OC/C(=C/C(=O)O)CC[C@@H]1C(C=O)=CC[C@@H]2C(C)(C)CCC[C@@]12C" next?
0 (no)

Same thing, different compound: CC1(C)C2CCC(CO[C@@H]3O[C@H](CO[C@@H]4OC[C@](O)(CO)[C@H]4O)[C@@H](O)[C@H](O)[C@H]3O)C1C2 (some centres undefined)
0 (no)

And "O=C(Nc1ccc(Cl)cc1)Nc1cccc(-c2cccc(N3CCCC3)n2)c1" ?
0 (no)

Item: "O=C(NO)c1ccc(CC(=O)N(CCO)c2ccccc2)cc1"
0 (no)

Consider next the compound "Cc1[nH]c(/C=C2\C(=O)Nc3ccc(S(=O)(=O)N(C)c4cccc(Cl)c4)cc32)c(C)c1C(=O)N1CCN(C)CC1" in the same way.
0 (no)

Would you kindly repeat that for "C#CCOc1ccc2c(c1)c(-c1ccc(C(C)C)cc1)nc(=O)n2C(C)C" ?
0 (no)

Also, COc1c(C(O)CC(C)C)ccc2c1C(=O)OCc1cc(C)cc(O)c1O2 (centres undefined) please.
0 (no)
